Measured values drawn from the supplement of paper PMC10567573 for this set.

Overview of recorded protein stability index for various variants
B1: ELF3 (parent)
chain: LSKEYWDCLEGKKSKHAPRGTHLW

# Variants of: B1
# experiment-notes: protein stability index of a GFP-peptide fusion (GPS, HEK-293T) (PSI 1-6); higher = more stable;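 note: lentivirally expressed fusions sorted by FACS into six bins by GFP to DsRed ratio, PSI derived from sequencing read proportions per bin multiplied by bin number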
# cond: c terminus: a fixed tail appended

A17I	3.06
S14R	2.92
S2T	2.98
P18Q	2.96
H22P	3.03

QUERY: protein stability index for L9S ?
RESULT: 3.31

QUERY: Requested field: protein stability index. Item: Y5E
RESULT: 3.62

QUERY: Could you share which protein stability index value was measured for W24S ?
RESULT: 4.08

QUERY: Reported protein stability index, variant R19W : ____
RESULT: 2.58

QUERY: Field request: protein stability index | item: W24R
RESULT: 3.54

QUERY: protein stability index for D7N ?
RESULT: 2.96

QUERY: Look up protein stability index for this variant: E4R
RESULT: 1.86
